Assay: in vitro
Details: mouse, microsomes
Description: Half life in mouse liver microsomes at 1 uM by LC-MS/MS analysis in presence of NADPH
measurement.name: half-life at 1 µM (min)
State the answer as a number, implicitly in min.

Entry NC(=O)c1cncc(OCc2cccc(NC(=O)c3cccnc3)c2)c1 ; half-life at 1 µM = 51

---

Target: NAD-dependent protein deacetylase sirtuin-3, mitochondrial (Homo sapiens, UniProt Q9NTG7)
Sequence (Q9NTG7 whole entry): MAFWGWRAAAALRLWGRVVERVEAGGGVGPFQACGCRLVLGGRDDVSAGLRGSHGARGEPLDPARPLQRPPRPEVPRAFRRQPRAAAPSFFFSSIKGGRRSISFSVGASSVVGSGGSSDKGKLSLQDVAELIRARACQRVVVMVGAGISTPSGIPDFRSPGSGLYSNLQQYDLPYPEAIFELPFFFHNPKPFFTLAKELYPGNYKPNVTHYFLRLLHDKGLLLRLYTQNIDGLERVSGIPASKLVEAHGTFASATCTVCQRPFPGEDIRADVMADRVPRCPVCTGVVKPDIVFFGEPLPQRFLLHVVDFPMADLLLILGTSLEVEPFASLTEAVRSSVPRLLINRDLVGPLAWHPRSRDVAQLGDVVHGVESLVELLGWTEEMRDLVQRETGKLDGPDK
measurement.name: IC50

Form field, IC50 with NAD-dependent protein deacetylase sirtuin-3, mitochondrial (Homo sapiens, UniProt Q9NTG7), item NC(=O)c1cncc(OCc2cccc(NC(=O)C34CC5CC(CC(C5)C3)C4)c2)c1 : > 200 µM

---

Assay: in vitro
Conditions: mouse, plasma
Description: Metabolic stability in mouse plasma assessed as parent compound remaining incubated for 24 hrs by LC-MS/MS analysis
measurement.name: remaining at 24 h (%)
State the answer as a number, implicitly in %.

Entry NC(=O)c1cncc(OCc2cccc(NC(=O)c3cccnc3)c2)c1 ; remaining at 24 h = 25

---

Experiment: in vitro
Conditions: human, plasma
Description: Metabolic stability in human plasma assessed as parent compound remaining incubated for 24 hrs by LC-MS/MS analysis
measurement.name: remaining at 24 h

Entry NC(=O)c1cncc(OCc2cccc(NC(=O)c3cccnc3)c2)c1 ; remaining at 24 h = 97%

---

Assay: in vitro
Conditions: human, microsomes
Description: Half life in human liver microsomes at 1 uM by LC-MS/MS analysis in presence of NADPH
measurement.name: half-life at 1 µM (h)
State the answer as a number, implicitly in h.

Entry NC(=O)c1cncc(OCc2cccc(NC(=O)c3cccnc3)c2)c1 ; half-life at 1 µM = 5.5

---

Assay: in vitro
Conditions: mouse, plasma
Description: Metabolic stability in mouse plasma assessed as parent compound remaining incubated for 6 hrs by LC-MS/MS analysis
measurement.name: remaining at 6 h (%)
State the answer as a number, implicitly in %.

Entry NC(=O)c1cncc(OCc2cccc(NC(=O)c3cccnc3)c2)c1 ; remaining at 6 h = 78

Recorded values, source ChEMBL document CHEMBL3804824.
